# SYSTEM TESTED: T1, 006 PSMA Fab (biotinylated (site not stated))
# T1 construct: also called Anti-PSMA Fab
# ASSAY REMARKS: clonal phage ELISA; biotinylated PSMA Fab on neutravidin plate, blocking buffer alone, anti-M13-HRP detection;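 also: crude clonal phage supernatants added without washing to wells preincubated with PSMA antigen or with blocking buffer alone, briefly incubated, then washed before bound phage detection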
Phage binding ELISA signal, Anti-PSMA Fab overview
READOUT LABEL: Phage binding ELISA signal, Anti-PSMA Fab

>>> df
                                     binder  obs_value
0  ILRHCTPEWMCIGL (tested as crude clonal phage supernatant) [Phage-3887]       1.11
1  DYWYCQPAWMCTGL (tested as crude clonal phage supernatant) [Phage-3892]        1.1
2  GMVRCVPDWMCYGF (tested as crude clonal phage supernatant) [Phage-3885]       1.11
3  LQIRCQPVWMCHGF (tested as crude clonal phage supernatant) [Phage-3888]        1.1
4  IDTLCVPWWMCSGF (tested as crude clonal phage supernatant) [Phage-3889]        1.1
